- Tested on: MDA-MB-231 breast
- Experimental details: NCI tumour cell line growth inhibition, 48 h
// reported TGI for each item listed
Express your answer in µM, writing the number without its unit.

Molecule: CC(C)OCc1cc(CN2CCN(c3cccc(Cl)c3)CC2)c(O)c2ncccc12
Quantity measured: TGI
Test result: 14.2

Input line: Which TGI value is on record for CCCNCC(O)CNc1ccc(NCC(O)CNCCC)c2c1C(=O)c1ccccc1C2=O (stereo not given) ?
Output line: 10.1

* * *

- Tested on: RPMI-8226 leukemia
- Experimental details: NCI tumour cell line growth inhibition, 48 h
Quantity measured: TGI

Recorded results for 5 compounds are shown here.
Compound: O=C1/C(=C/c2ccc(Cl)cc2)N=C(c2ccccc2)N1/N=C/c1ccccc1O
TGI: 24.8 µM
//
Compound: O=C1C(=C([O-])c2ccccc2)C(=O)c2ccccc21.O=C1C(=C([O-])c2ccccc2)C(=O)c2ccccc21.[Co+2]
TGI: > 100 µM
//
Compound: COc1ccc2[nH]c3c4c(cc(-c5ccccc5)c3c2c1)C(=O)N(c1ccccc1)C4=O
TGI: > 100 µM
//
Compound: OCC1OC(n2cnc3c(SCc4ccccc4)ncnc32)C(O)C1O (configuration not stated)
TGI: > 100 µM
//
Compound: CC(C)(CN1CCCCC1)C(=O)CC(SCCN)c1ccc(Cl)cc1 (configuration not stated)
TGI: 3.86 µM

Input line: I would be grateful if you could share the reported TGI for "O=[N+]([O-])/C=C/c1cc2ccc3ccccc3c2[nH]1" .
Output line: 0.708 µM

Input line: Same for "N#Cc1c2ccccc2c2nnc3ccccc3n12"
Output line: > 100 µM

Hey, just so you know, these numbers are from PubChem BioAssay (NCI).
